Can you tell me pKd for the items I'm about to list?
- assay.system: IL16_4, Q14005
- Sequence (Q14005 1229-1329): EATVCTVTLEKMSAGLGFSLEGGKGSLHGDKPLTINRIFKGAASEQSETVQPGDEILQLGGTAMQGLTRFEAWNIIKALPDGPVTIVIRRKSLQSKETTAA
- experimental.details: holdup assay
- Set-up: key: below the threshold = too weak to quantify, mostly under pKd 3.1 to 4
- assay.conditions: plain residues with an end cap or a label only (N-terminal biotin on a linker: ado-ado)
Number only, no unit.

Which pKd is listed for TRKRSGEAAV [PFKM, P08237] ?
3.64

Which pKd is listed for EPQYQPGENL [SRC, P12931] ?
3.5

Which pKd is listed for MHIQEKGFHV [EPHA6, Q9UF33] ?
3.55

Which pKd is listed for ILRKSTTTTV [PRR16, Q569H4] ?
3.54

Which pKd is listed for RDPPAEWTRV [PTPN18, Q99952] ?
3.6

Which pKd is listed for SVTSERETNI [SLC16A7, O60669] ?
3.49
